Reported In vitro activity relative to native peptide (%), vs. GLP-1 (cAMP EC50) is given for each of the following binders.
target: human GLP-1 receptor (human, UniProt P43220 24-463); test: cell-based or functional assay
Positions of bridges follow the written chain, without caps; N, C: chain ends. Non-standard residues stand in square brackets, D forms with d. No end group written: not given here. *: point of attachment. Acetyl(2-(4-imidazolyl)) = O=C(Cc1c[nH]cn1)*; Aib = CC(C)(N)C(=O)O
OBSERVABLE: In vitro activity relative to native peptide (%), vs. GLP-1 (cAMP EC50)

{"BINDER": "{Acetyl(2-(4-imidazolyl))}-[Aib]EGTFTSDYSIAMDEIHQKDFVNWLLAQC (bridge 15-19) [trigonal agonist of SEQ ID NO: 83]", "SCALE_UNIT": "%", "SIGN": "=", "RECORDED_MEASUREMENT": 47.3}
{"BINDER": "{Acetyl(2-(4-imidazolyl))}-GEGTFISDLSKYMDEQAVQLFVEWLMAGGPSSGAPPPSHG [trigonal agonist of SEQ ID NO: 12]", "SCALE_UNIT": "%", "SIGN": "=", "RECORDED_MEASUREMENT": 0.4}
{"BINDER": "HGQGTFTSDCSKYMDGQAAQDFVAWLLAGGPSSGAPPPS [trigonal agonist of SEQ ID NO: 45]", "SCALE_UNIT": "%", "SIGN": "=", "RECORDED_MEASUREMENT": 6.6}
{"BINDER": "{Acetyl(2-(4-imidazolyl))}-[Aib]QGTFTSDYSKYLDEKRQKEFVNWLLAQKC (bridge 15-19) [trigonal agonist of SEQ ID NO: 93]", "SCALE_UNIT": "%", "SIGN": "=", "RECORDED_MEASUREMENT": 5.7}
{"BINDER": "H[Aib]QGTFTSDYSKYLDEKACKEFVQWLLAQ (bridge 16-20) [trigonal agonist of SEQ ID NO: 31]", "SCALE_UNIT": "%", "SIGN": "=", "RECORDED_MEASUREMENT": 135}
{"BINDER": "H[Aib]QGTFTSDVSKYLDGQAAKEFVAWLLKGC [trigonal agonist of SEQ ID NO: 7]", "SCALE_UNIT": "%", "SIGN": "=", "RECORDED_MEASUREMENT": 13.7}
{"BINDER": "{Acetyl(2-(4-imidazolyl))}-GQGTFTSDLSKQMDSERAREFIEWLKNTGPSSGAPPPSHG [trigonal agonist of SEQ ID NO: 18]", "SCALE_UNIT": "%", "SIGN": "<", "RECORDED_MEASUREMENT": 0.1}
{"BINDER": "Y[Aib]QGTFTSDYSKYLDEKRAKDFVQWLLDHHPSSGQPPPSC (bridge 16-20) [trigonal agonist of SEQ ID NO: 76]", "SCALE_UNIT": "%", "SIGN": "=", "RECORDED_MEASUREMENT": 10.3}
{"BINDER": "H[Aib]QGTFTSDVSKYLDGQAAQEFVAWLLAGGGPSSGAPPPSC [trigonal agonist of SEQ ID NO: 10]", "SCALE_UNIT": "%", "SIGN": "=", "RECORDED_MEASUREMENT": 46}
{"BINDER": "H[Aib]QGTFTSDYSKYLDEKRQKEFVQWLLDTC (bridge 16-20) [trigonal agonist of SEQ ID NO: 52]", "SCALE_UNIT": "%", "SIGN": "=", "RECORDED_MEASUREMENT": 44.1}
{"BINDER": "Y[Aib]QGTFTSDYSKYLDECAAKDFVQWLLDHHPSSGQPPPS (bridge 16-20) [trigonal agonist of SEQ ID NO: 67]", "SCALE_UNIT": "%", "SIGN": "=", "RECORDED_MEASUREMENT": 28.5}
